Tested on: Ruminococcus gnavus DSM 108212
measurement_protocol: fold change of 2-Phenylethylamine concentration vs plate DMSO controls (fold change (ratio)); higher = more amine produced, active = hit call of the paper (significant change in both replicates, either direction)
run_conditions: incubation time: 27 h, anaerobic, 37 °C
Structures can show the parent of a compound that is named as a salt.
Give True when the value for fold change of 2-Phenylethylamine concentration is at least 1. Give False when it is less.

Below are worked cases with known answers.
> print(dat)
                                   compound  assigned.label
1  CNC(C)CCC=C(C)C (stereo not drawn) [Isometheptene mucate] (20 µM)           False
2  CC(=O)N(O)CCCCCNC(=O)CCC(=O)N(O)CCCCCNC(=O)CCC(=O)N(O)CCCCCN [Deferoxamine mesylate] (20 µM)            True
3  CN(CCCN1c2ccccc2CCc2ccccc21)CC(=O)c1ccc(Cl)cc1 [Lofepramine] (20 µM)           False
4  CCCNC(C)C(=O)Nc1c(C)csc1C(=O)OC (stereo not drawn) [Articaine hydrochloride] (20 µM)            True
5  CCN(CC)CCOc1ccc(C(=C(Cl)c2ccccc2)c2ccccc2)cc1 [(Z,E) Clomiphene citrate] (20 µM)           False

We next turn to a different compound, shown below.
Ask: Could you verify whether the entry CC(C(=O)O)c1ccc2c(c1)CC(=O)c1ccccc1S2 (stereo not drawn) [Zaltoprofen] (20 µM) shows fold change of 2-Phenylethylamine concentration of no less than 1?
Result: True

====

Test system: Clostridium sporogenes DSM 1664
measurement_protocol: fold change of Tryptamine concentration vs plate DMSO controls (fold change (ratio)); higher = more amine produced, active = hit call of the paper (significant change in both replicates, either direction)
run_conditions: incubation time: 27 h, anaerobic, 37 °C
Counter-ions that a name gives are not always drawn.
measure_name: fold change of Tryptamine concentration
Number, no unit, nothing else.

compound	fold change of Tryptamine concentration
CO[C@H]1/C=C/O[C@@]2(C)Oc3c(C)c(O)c4c(O)c(c(/C=N/N5CCN(C)CC5)c(O)c4c3C2=O)NC(=O)/C(C)=C\C=C\[C@H](C)[C@H](O)[C@@H](C)[C@@H](O)[C@@H](C)[C@H](OC(C)=O)[C@@H]1C [Rifampicin] (20 µM)	0.0227
Nc1c2ccccc2nc2ccccc12 [Aminacrine] (20 µM)	0.923
CC(=O)N[C@H]1[C@H]([C@H](O)[C@H](O)CO)OC(C(=O)O)=C[C@@H]1NC(=N)N [Zanamivir] (20 µM)	1
CN1CCC(=C2c3ccccc3CCc3sccc32)CC1 [Pizotifen malate] (20 µM)	1.01
CCOC(=O)[C@H](CCc1ccccc1)N[C@@H](C)C(=O)N1CCC[C@H]1C(=O)O [Enalapril maleate] (20 µM)	1

# compound C/C(=C(\CCOC(=O)c1ccccc1)SS/C(CCOC(=O)c1ccccc1)=C(/C)N(C=O)Cc1cnc(C)nc1N)N(C=O)Cc1cnc(C)nc1N [Bisbentiamine] (20 µM) ; its fold change of Tryptamine concentration = 0.975

# compound Cc1cc(CC(=O)O)n(C)c1C(=O)c1ccc(Cl)cc1 [Zomepirac sodium salt] (20 µM) ; its fold change of Tryptamine concentration = 0.971

====

Tested on: Escherichia coli IAI1
measurement_protocol: growth (OD595) fold change vs plate DMSO controls (fold change (ratio)); higher = more growth
run_conditions: incubation time: 27 h, anaerobic, 37 °C
Counter-ions that a name gives are not always drawn.
measure_name: growth

Example results:
compound	tested_target	reading
c1coc(CNc2ncnc3[nH]cnc23)c1 [Kinetin] (20 µM)	Escherichia coli IAI1	1.05
C#C[C@]1(O)CC[C@H]2[C@@H]3CCC4=CC(=O)CC[C@@H]4[C@H]3CC[C@@]21C [Norethindrone] (20 µM)	Escherichia coli IAI1	0.973
Nc1ccn([C@@H]2CS[C@H](CO)O2)c(=O)n1 [Lamivudine] (20 µM)	Escherichia coli IAI1	0.995
CC#C[C@]1(O)CC[C@H]2[C@@H]3CCC4=CC(=O)CCC4=C3[C@@H](c3ccc(N(C)C)cc3)C[C@@]21C [Mifepristone] (20 µM)	Escherichia coli IAI1	0.971
O=c1cc(-c2ccc(O)c(O)c2)oc2cc(O)cc(O)c12 [Luteolin] (20 µM)	Escherichia coli IAI1	0.977

Then this compound:
Here CCN(CC)CC(=O)Nc1c(C)cccc1C [Lidocaine hydrochloride] (20 µM) was tested on Escherichia coli IAI1, and its growth came to 0.973
